# TEST_TARGET: hALDH2 (recombinant human mitochondria ALDH) (Homo sapiens, UniProt P05091)
# TEST_DESCRIPTION: ALDH2 inhibition assay (NADH formation, formaldehyde substrate)
# Assay type: biochemical
# TEST_CONTEXT: at 1 μM; read-out: hALDH2 inhibition (IC50 hALDH2 column)
MEASUREMENT_LABEL: inhibition at 1 µM (%)
One number for each entry, in %.

> print(dat)
                                   compound  recorded.number
1  Cc1nc(-c2ccc(C(F)(F)F)cc2)sc1COc1ccc2c(=O)c(-c3ccc(C#N)cc3)coc2c1 [PT-65]               30
2  O=c1c(-c2ccc(O)cc2)coc2cc(OCCc3ccccc3)ccc12 [PT-87]             0.04
3  N#Cc1cc(-c2coc3cc(OCc4noc(-c5cc(F)cc(C(F)(F)F)c5)n4)ccc3c2=O)ccc1F [PT-9]               24
4  O=c1c(-c2ccc(O)cc2)coc2cc(OCc3cc(-c4ccc(Cl)cc4)on3)ccc12 [PT-95]               57
5  CS(=O)(=O)Nc1ccc(-c2coc3cc(OCc4noc(-c5cc(F)cc(C(F)(F)F)c5)n4)ccc3c2=O)cc1 [PT-70]               20
6  CC(=O)c1cccc(-c2coc3cc(OCc4noc(-c5cc(F)cc(C(F)(F)F)c5)n4)ccc3c2=O)c1 [PT-73]               18
7  COC(=O)c1cccc(COc2ccc3c(=O)c(-c4ccc(OC)nc4)coc3c2)c1 [PT-6]               16
8  CS(=O)(=O)c1ccc(-c2coc3cc(OCc4noc(-c5cc(F)cc(C(F)(F)F)c5)n4)ccc3c2=O)cc1 [PT-71]                8

List inhibition at 1 µM for every entry below, keeping the order given.
1. COC(=O)c1cccc(COc2ccc3c(=O)c(-c4ccc(CO)cc4)coc3c2)c1 [PT-7]
2. NC(=O)c1ccc(-c2coc3cc(OCc4noc(-c5cc(F)cc(C(F)(F)F)c5)n4)ccc3c2=O)cc1 [PT-72]
3. CCOC(=O)c1cccc(-c2coc3cc(OCc4noc(-c5cc(F)cc(C(F)(F)F)c5)n4)ccc3c2=O)c1 [PT-3]
4. O=c1c(-c2ccc(O)cc2)coc2cc(OCc3cc(-c4ccc(Cl)c(Cl)c4)on3)ccc12 [PT-96]
5. O=c1c(-c2ccc(OCc3ccc(C(F)(F)F)nc3)cc2)coc2cc(OCc3cncc(C(F)(F)F)c3)ccc12 [PT-46]
6. CS(=O)(=O)Nc1ccc(-c2coc3cc(OCc4nc(-c5cc(F)cc(C(F)(F)F)c5)no4)ccc3c2=O)cc1 [PT-8]
7. COc1ccc(-c2coc3cc(OCc4sc(-c5ccc(C(F)(F)F)cc5)nc4C)ccc3c2=O)cn1 [PT-67]

Solution:
[75, 14, 22, 47, 10, 57, 25]

Entry CCOC(=O)COc1ccc(-c2coc3cc(OCC(=O)OCC)ccc3c2=O)cc1 [PT-10] ; inhibition at 1 µM = 60

* * *

# TEST_TARGET: hALDH2 (recombinant human mitochondria ALDH) (Homo sapiens)
# Sequence (P05091 18-517): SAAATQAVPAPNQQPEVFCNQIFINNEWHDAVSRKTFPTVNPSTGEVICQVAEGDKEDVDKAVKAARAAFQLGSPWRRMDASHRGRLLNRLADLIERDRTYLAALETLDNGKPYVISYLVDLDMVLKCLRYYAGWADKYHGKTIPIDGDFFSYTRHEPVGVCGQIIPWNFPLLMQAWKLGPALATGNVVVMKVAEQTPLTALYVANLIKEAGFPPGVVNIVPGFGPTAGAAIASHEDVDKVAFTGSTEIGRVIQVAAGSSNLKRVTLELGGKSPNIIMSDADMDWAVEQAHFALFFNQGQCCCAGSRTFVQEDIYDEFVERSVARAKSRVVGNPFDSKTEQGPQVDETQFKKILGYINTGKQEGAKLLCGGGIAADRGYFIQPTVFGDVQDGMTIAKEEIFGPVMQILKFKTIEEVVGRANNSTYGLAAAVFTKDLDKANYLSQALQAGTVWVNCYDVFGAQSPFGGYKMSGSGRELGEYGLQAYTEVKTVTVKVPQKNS
# TEST_DESCRIPTION: ALDH2 inhibition assay (NADH formation, formaldehyde substrate)
I'd be grateful if you could share measured log10 of IC50 for these entries.
On a log10 scale: recorded IC50, unit nM.

Some solved entries appear below for comparison.
> print(dat)
                                smiles.repr                               test.target  measurement.label  recorded.number
1  CS(=O)(=O)Nc1ccc(-c2coc3cc(OCc4cnc(-c5ccc(C(F)(F)F)cc5)s4)ccc3c2=O)cc1  hALDH2 (recombinant human mitochondria ALDH) (Homo sapiens)      log10 of IC50             1.40
2  CC(C)OC(=O)c1cccc(COc2ccc3c(=O)c(-c4ccc(O)cc4)coc3c2)c1  hALDH2 (recombinant human mitochondria ALDH) (Homo sapiens)      log10 of IC50             1.30
3  O=c1c(-c2ccc(O)cc2)coc2cc(OCc3nnc(-c4cccc(F)c4)o3)ccc12  hALDH2 (recombinant human mitochondria ALDH) (Homo sapiens)      log10 of IC50             1.04
4  CS(=O)(=O)Nc1ccc(-c2coc3cc(OCc4noc(-c5ccc(F)cc5)n4)ccc3c2=O)cc1  hALDH2 (recombinant human mitochondria ALDH) (Homo sapiens)      log10 of IC50             2.15
5  CCOC(=O)c1ccc(COc2ccc3c(=O)c(-c4ccc(O)cc4)coc3c2)cc1  hALDH2 (recombinant human mitochondria ALDH) (Homo sapiens)      log10 of IC50             2.11
6  O=c1c(-c2ccc(O)cc2)coc2cc(OCc3ccccn3)ccc12  hALDH2 (recombinant human mitochondria ALDH) (Homo sapiens)      log10 of IC50             0.85
7  O=c1c(-c2ccc(O)cc2)coc2cc(OCc3coc(-c4ccc(F)c(F)c4)n3)ccc12  hALDH2 (recombinant human mitochondria ALDH) (Homo sapiens)      log10 of IC50             2.08
8  O=c1c(-c2ccc(O)cc2)coc2cc(OCc3nc(-c4ccc(Cl)cc4)no3)ccc12  hALDH2 (recombinant human mitochondria ALDH) (Homo sapiens)      log10 of IC50             2.43

Attention now turns to another entry.
Per the record, C[C@H](NC(=O)COc1ccc2c(=O)c(-c3ccc(O)cc3)coc2c1)c1ccc(F)cc1 has log10 of IC50 of 0.90

* * *

For each of the compounds below, state its IC50.
# TEST_TARGET: hALDH2 (recombinant human mitochondria ALDH) (Homo sapiens, UniProt P05091)
# TEST_DESCRIPTION: ALDH2 inhibition assay (NADH formation, formaldehyde substrate)
Answers are plain numbers, in nM.

Recorded results for 3 compounds are shown here.
> print(dat)
                                smiles.repr  measurement.label  scale.unit  recorded.number
1  O=c1c(-c2ccc(O)cc2)coc2cc(OCc3noc(-c4cc(F)cc(C(F)(F)F)c4)n3)ccc12               IC50          nM               10
2  NC(=O)c1ccc(COc2ccc3c(=O)c(-c4ccc(O)cc4)coc3c2)cc1               IC50          nM              380
3  O=c1c(-c2ccc(OCc3ccccn3)cc2)coc2cc(OCc3ccccn3)ccc12               IC50          nM               17

Kindly note the recorded IC50 for O=c1c(-c2ccc(O)cc2)coc2cc(OCNCc3cccc(C(F)(F)F)c3)ccc12 , which is 5

* * *

# TEST_TARGET: hMAO-B (Homo sapiens, UniProt P27338)
# Construct: purchased Sigma M7441
# Sequence (P27338 1-520): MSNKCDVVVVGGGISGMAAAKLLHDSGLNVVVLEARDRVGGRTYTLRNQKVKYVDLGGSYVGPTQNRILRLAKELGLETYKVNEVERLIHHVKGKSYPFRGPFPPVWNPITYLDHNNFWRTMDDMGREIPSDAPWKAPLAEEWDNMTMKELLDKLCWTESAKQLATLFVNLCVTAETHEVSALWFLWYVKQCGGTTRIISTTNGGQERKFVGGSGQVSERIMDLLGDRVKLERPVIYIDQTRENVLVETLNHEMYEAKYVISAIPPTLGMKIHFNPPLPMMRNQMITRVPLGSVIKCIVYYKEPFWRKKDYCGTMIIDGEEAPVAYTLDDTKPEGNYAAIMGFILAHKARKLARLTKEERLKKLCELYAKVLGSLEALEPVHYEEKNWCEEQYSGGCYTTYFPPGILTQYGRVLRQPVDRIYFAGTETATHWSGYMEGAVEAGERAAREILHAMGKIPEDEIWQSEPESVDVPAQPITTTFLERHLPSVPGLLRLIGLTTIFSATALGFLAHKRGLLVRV
# TEST_DESCRIPTION: MAO-B inhibition assay (Amplex Red, horseradish peroxidase-coupled)
# Type: biochemical
# TEST_CONTEXT: at 10 μM; read-out: hMAO-B inhibition (IC50 hMAO-B)
MEASUREMENT_LABEL: inhibition at 10 µM (%)
Numbers only, in %.

Consider the worked cases shown below.
> print(dat)
                                smiles.repr  recorded.number
1  O=C(COc1ccc2c(=O)c(-c3ccc(O)cc3)coc2c1)Nc1ccccc1C(F)(F)F               20
2  CS(=O)(=O)c1ccc(-c2coc3cc(OCc4noc(-c5cc(F)cc(C(F)(F)F)c5)n4)ccc3c2=O)cc1               11
3  N#Cc1ccc(-c2coc3cc(OCc4nnc(-c5cc(F)cc(C(F)(F)F)c5)o4)ccc3c2=O)cc1               14

Kindly give each listed record's inhibition at 10 µM.
1. N#CCOc1ccc2c(=O)c(-c3ccc(O)cc3)coc2c1
2. COC(=O)c1coc(COc2ccc3c(=O)c(-c4ccc(O)cc4)coc3c2)n1
3. C[C@@H](NC(=O)COc1ccc2c(=O)c(-c3ccc(O)cc3)coc2c1)c1ccc(F)cc1
4. O=c1c(-c2ccc(O)cc2)coc2cc(OCc3nnc(-c4cccc(F)c4)o3)ccc12
5. CC(=O)c1cccc(-c2coc3cc(OCc4noc(-c5cc(F)cc(C(F)(F)F)c5)n4)ccc3c2=O)c1
6. O=c1c(-c2ccc(O)cc2)coc2cc(OCc3nnc(-c4cccc(C(F)(F)F)c4)o3)ccc12

Solution:
[35, 34, 12, 25, 10, 13]

Consider the following items and state reported inhibition at 10 µM for each.
1. CS(=O)(=O)Nc1ccc(-c2coc3cc(OCc4noc(-c5cc(F)cc(C(F)(F)F)c5)n4)ccc3c2=O)cc1
2. O=c1c(-c2ccc(O)cc2)coc2cc(OC[C@H](O)CNCc3cccc(C(F)(F)F)c3)ccc12
3. O=c1c(-c2ccc(O)cc2)coc2cc(OCc3ccccn3)ccc12
4. O=c1c(-c2ccc(O)cc2)coc2cc(OCc3noc(-c4ccc(F)cc4)n3)ccc12
5. O=c1c(-c2ccc(O)cc2)coc2cc(OCc3cc(-c4cccc(C(F)(F)F)c4)on3)ccc12
6. O=c1c(-c2ccc(O)cc2)coc2cc(OCCOc3ccc(Cl)cc3)ccc12

Solution:
1. 11
2. 19
3. 11
4. 35
5. 7
6. 32

Look up inhibition at 10 µM for the entries below, preserving their order.
1. O=c1c(-c2ccc(O)cc2)coc2cc(OCCCc3ccccc3)ccc12
2. O=c1c(-c2ccc(O)cc2)coc2cc(OCc3nnc(-c4ccccc4Cl)s3)ccc12
3. C[C@@H](NCC(=O)COc1ccc2c(=O)c(-c3ccc(O)cc3)coc2c1)c1ccc(F)cc1
4. COc1ccc(-c2coc3cc(OCc4sc(-c5ccc(C(F)(F)F)cc5)nc4C)ccc3c2=O)cn1
5. O=c1c(-c2ccc(O)cc2)coc2cc(OCc3nnc(-c4cc(F)cc(C(F)(F)F)c4)o3)ccc12
6. O=c1c(-c2ccc(O)cc2)coc2cc(OCc3ccncc3)ccc12

Solution:
27
8
29
16
22
15
